target: mutEGFR (D770_N771insSVD) (Homo sapiens, UniProt P00533, INS767SVD); experiment: Exon20-mutant-EGFR (D770_N771insSVD) TR-FRET kinase assay; conditions: 2 mM ATP, 15 min preincubation
Sequence (P00533 with tags, fused parts or gaps INS767SVD limits assumed): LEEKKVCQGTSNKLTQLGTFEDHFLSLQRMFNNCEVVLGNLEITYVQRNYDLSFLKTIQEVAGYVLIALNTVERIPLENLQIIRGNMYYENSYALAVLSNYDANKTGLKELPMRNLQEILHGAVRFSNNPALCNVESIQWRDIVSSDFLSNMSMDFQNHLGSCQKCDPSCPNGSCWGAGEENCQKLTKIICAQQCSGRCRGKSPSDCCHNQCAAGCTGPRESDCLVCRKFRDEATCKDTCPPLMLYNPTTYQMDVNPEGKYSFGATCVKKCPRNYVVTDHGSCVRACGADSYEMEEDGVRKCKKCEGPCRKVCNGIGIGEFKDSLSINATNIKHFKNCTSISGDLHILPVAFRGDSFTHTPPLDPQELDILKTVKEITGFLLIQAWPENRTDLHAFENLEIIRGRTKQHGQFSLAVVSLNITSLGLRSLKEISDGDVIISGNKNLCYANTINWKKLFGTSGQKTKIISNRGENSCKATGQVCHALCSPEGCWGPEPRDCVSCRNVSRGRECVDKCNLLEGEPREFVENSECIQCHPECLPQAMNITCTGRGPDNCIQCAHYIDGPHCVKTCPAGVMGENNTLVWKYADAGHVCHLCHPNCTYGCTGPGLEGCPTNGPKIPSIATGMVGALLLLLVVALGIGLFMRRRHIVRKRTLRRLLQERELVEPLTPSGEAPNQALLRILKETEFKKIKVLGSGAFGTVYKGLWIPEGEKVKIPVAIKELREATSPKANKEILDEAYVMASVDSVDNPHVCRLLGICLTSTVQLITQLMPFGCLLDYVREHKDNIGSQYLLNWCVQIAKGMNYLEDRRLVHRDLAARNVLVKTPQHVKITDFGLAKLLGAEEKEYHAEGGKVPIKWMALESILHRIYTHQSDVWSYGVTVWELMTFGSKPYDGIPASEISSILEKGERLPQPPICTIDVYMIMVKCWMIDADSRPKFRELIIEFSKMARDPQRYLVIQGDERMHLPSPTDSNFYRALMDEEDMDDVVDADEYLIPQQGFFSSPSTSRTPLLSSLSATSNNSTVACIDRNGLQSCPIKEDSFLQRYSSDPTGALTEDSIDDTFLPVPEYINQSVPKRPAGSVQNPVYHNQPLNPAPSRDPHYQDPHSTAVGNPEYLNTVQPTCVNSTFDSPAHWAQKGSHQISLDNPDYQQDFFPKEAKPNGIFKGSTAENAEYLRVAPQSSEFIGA
# IC50 per record follows
Number only, in nM; omit the unit.

Use the examples below as a reference point.
Prompt line: Request the reported IC50 associated with "C=CC(=O)N1CCC[C@H]1COc1cnccc1-c1[nH]c2cccnc2c1-c1ccc2cccnc2c1"
Response line: 4.41

Prompt line: Reported IC50, compound "C=CC(=O)N(C)CCOc1cnccc1-c1[nH]c2ccc(OC)nc2c1-c1ccccc1" : ____
Response line: 198

Prompt line: Quick one: IC50 of "C=CS(=O)(=O)N1C[C@@H](C)C[C@H]1COc1cnccc1-c1[nH]c2cccnc2c1-c1ccccc1" ?
Response line: 0.135

Prompt line: I am curious: what IC50 value has been reported for "C=CC(=O)N(C)CCOc1cnccc1-c1[nH]c2cccnc2c1-c1cc(Cl)cc(Cl)c1" ?
Response line: 931

Prompt line: Entry under review: C=CC(=O)N1C[C@@H](N(C)CCN(C)C)C[C@H]1COc1cnccc1-c1[nH]c2cccnc2c1-c1ccccc1 (single isomer, unassigned) [Example 132] . Reported IC50?
Response line: 9.32

Next:
Prompt line: Would you kindly share the measured IC50 for C=CC(=O)N1CC[C@H]1COc1cnccc1-c1[nH]c2cccnc2c1-c1cccc(C(F)(F)F)c1 (single isomer, unassigned) ?
Response line: 129

Prompt line: Name the reported IC50 value associated with the compound C=CC(=O)N1CC[C@H]1COc1cnccc1-c1[nH]c2cccnc2c1-c1ccccc1 (single isomer, unassigned)
Response line: 120

###

biological target: mutEGFR (D770_N771insSVD) (Homo sapiens, UniProt P00533, INS767SVD); experiment: Exon20-mutant-EGFR (D770_N771insSVD) TR-FRET kinase assay; conditions: 2 mM ATP, 15 min preincubation
pIC50: −log10 of the molar value.
Class y: pIC50 at least 7. Class n: pIC50 below 7.

# count of solved cases: 6
Prompt line: Reported pIC50 at or above 7? "C=CC(=O)N(C)CCOc1cnccc1-c1[nH]c2cccnc2c1-c1cccc(Cl)c1"
Response line: y

Prompt line: I'd appreciate it if you could say whether "C=CC(=O)N1C[C@@H](C)C[C@H]1COc1cnccc1-c1[nH]c2cccnc2c1-c1ccccc1" has pIC50 at least equal to 7.
Response line: y

Prompt line: Is pIC50 for "C=CC(=O)N1CCC[C@H]1COc1cnccc1-c1[nH]c2cccnc2c1-c1cccc(OC)c1" at or above 7?
Response line: y

Prompt line: Hi, just wondering whether "C=CC(=O)N(CC)CCOc1cnccc1-c1[nH]c2cccnc2c1-c1ccccc1" shows pIC50 of 7 or higher.
Response line: y

Prompt line: Quick check: does "C=CC(=O)NCCOc1cnccc1-c1[nH]c2cccnc2c1-c1ccc(F)cc1" have pIC50 greater than or equal to 7?
Response line: n

Prompt line: Threshold query (pIC50 >= 7) on C#CC(=O)N1CCC(Oc2cnccc2-c2[nH]c3cccnc3c2-c2cccc(Cl)c2)C1 (racemic)
Response line: y

Further cases:
Prompt line: Check if pIC50 >= 7 (inclusive). Item: "C=CC(=O)N(C)CCOc1cnccc1-c1[nH]c2cccnc2c1-c1ccc(F)c(Cl)c1"
Response line: y

Prompt line: Check this compound for pIC50 at or above 7: "C=CC(=O)N(C)CCOc1cnccc1-c1[nH]c2cccnc2c1-c1ccc(Cl)c(CC)c1"
Response line: n

Prompt line: Check this compound for pIC50 at or above 7: "C=CC(=O)N1C[C@@H](F)C[C@H]1COc1cnccc1-c1[nH]c2cccnc2c1-c1ccccc1"
Response line: y
